Data provenance: ChEMBL document CHEMBL1201862

# Tested on: HT-29
# METHOD SUMMARY: NCI tumour cell line growth inhibition, 48 h
Active and inactive are the calls of the source. Rule as the data show it: active = GI50 up to about 1.1 µM and inactive = higher.
GI50 by entry:

Below, each entry is followed by its recorded GI50 result.
[
  {
    "MOLECULE": "N=C(N)NCCCC(NC(=O)c1c2ccccc2nc2ccccc12)C(=O)O (stereo unspecified)",
    "READOUT LABEL": "GI50",
    "RESULT VALUE": "> 100 µM (inactive)"
  },
  {
    "MOLECULE": "CC(=O)Nc1ccc(-c2nc3ccccc3s2)cc1Br",
    "READOUT LABEL": "GI50",
    "RESULT VALUE": "> 63.7 µM (inactive)"
  },
  {
    "MOLECULE": "NCC(O)CNC(=O)c1ccc(-c2ccc(-c3ccc(C(=O)NCC(O)CN)cc3)o2)cc1 (stereo unspecified)",
    "READOUT LABEL": "GI50",
    "RESULT VALUE": "> 100 µM (inactive)"
  },
  {
    "MOLECULE": "Cc1cccc(C(C)(C)C)c1NC(=O)CCl",
    "READOUT LABEL": "GI50",
    "RESULT VALUE": "> 100 µM (inactive)"
  },
  {
    "MOLECULE": "O=C(/C=C1\\Nc2ncccc2N=C1CC(=O)c1ccccc1)c1ccccc1",
    "READOUT LABEL": "GI50",
    "RESULT VALUE": "6.89 µM (inactive)"
  },
  {
    "MOLECULE": "CC(=O)N(CCc1ccccc1)C(C)(C#N)c1ccccc1 (stereo unspecified)",
    "READOUT LABEL": "GI50",
    "RESULT VALUE": "> 100 µM (inactive)"
  },
  {
    "MOLECULE": "CCOC(=N)CC(=O)Nc1ccccc1",
    "READOUT LABEL": "GI50",
    "RESULT VALUE": "> 46.5 µM (inactive)"
  },
  {
    "MOLECULE": "COc1ccc(/C=N\\NC(=O)Nc2cccc3ccccc23)cc1",
    "READOUT LABEL": "GI50",
    "RESULT VALUE": "8.97 µM (inactive)"
  }
]

Task: Report GI50, nothing else, for this molecule: CC(CS(=O)(=O)Cc1ccccc1)C(N)=O (stereo unspecified)
Output: > 100 µM (inactive)

Task: Report GI50, nothing else, for this molecule: Cc1ccc(/C=C/C(=O)C(C)C)cc1
Output: 37.3 µM (inactive)

Task: Report GI50, nothing else, for this molecule: CC(C)=CCC[C@@H](C)C1=C(O)C(=O)C(C)=C(N)C1=O
Output: 40.8 µM (inactive)

Task: Report GI50, nothing else, for this molecule: NCc1ccccc1-c1c2nc(c(-c3ccccc3CN)c3ccc([nH]3)c(-c3ccccc3CN)c3nc(c(-c4ccccc4CN)c4ccc1[nH]4)C=C3)C=C2
Output: 28.2 µM (inactive)
